Assay: SAD study in healthy volunteers: PK in plasma, whole blood, red blood cells
Format: in vivo, human
Conditions: human; HV single oral 2200 mg (Cohort 8); red blood cells (calculated conc.); geometric mean
READOUT: AUC(0-inf) (µg·h/mL)
One number for each entry, in µg·h/mL.

Fill in the blank: the reported AUC(0-inf) of O=Cc1c(O)cccc1OC[C@@H]1COCCN1C(=O)c1cccnc1CCO is ____.
670000

---

Experiment: MAD study in healthy volunteers: whole blood and plasma PK
Assay type: in vivo, human
Details: human; HV MAD Day 14, 50 mg QD maintenance; whole blood; median
READOUT: Tmax (h)
Numbers only, in h.

Item O=Cc1c(O)cccc1OC[C@@H]1COCCN1C(=O)c1cccnc1CCO [Compound I] has what recorded Tmax?
3
